The measured values listed here are drawn from patent US20040106626A1.

Recorded below: pIC50, system UniProtKB P00742.
Sequence (P00742 235-488 limits assumed): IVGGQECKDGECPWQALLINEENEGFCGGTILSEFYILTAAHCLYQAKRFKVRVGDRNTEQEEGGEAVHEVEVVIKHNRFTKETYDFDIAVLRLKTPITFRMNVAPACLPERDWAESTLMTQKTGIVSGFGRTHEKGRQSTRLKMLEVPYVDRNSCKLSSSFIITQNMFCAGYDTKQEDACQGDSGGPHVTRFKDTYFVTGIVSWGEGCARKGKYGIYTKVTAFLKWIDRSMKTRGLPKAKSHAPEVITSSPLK
Sequence (P00742 41-179 limits assumed): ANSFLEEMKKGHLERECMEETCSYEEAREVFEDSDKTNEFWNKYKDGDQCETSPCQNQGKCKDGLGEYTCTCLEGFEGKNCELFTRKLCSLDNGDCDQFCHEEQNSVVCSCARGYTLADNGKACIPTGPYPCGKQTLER
pIC50: −log10 of the molar value.

Items follow; give pIC50 for each.
1. CC(C)Nc1ncc(-c2cc(N)cc(-c3nnn[nH]3)c2)n(CC(=O)NCc2ccc(C(=N)N)cc2)c1=O.O=C(O)C(F)(F)F [Example 227]
2. CCC(CC)COc1cc(N)cc(-c2cnc(NC(C)C)c(=O)n2CC(=O)NCc2ccc(C(=N)N)cc2)c1.O=C(O)C(F)(F)F.O=C(O)C(F)(F)F [Example 209]
3. COc1cc(N)cc(-c2cnc(NC(C)C)c(=O)n2CC(=O)NCc2cc(O)c(C(=N)N)c(F)c2)c1.Cl.Cl [Example 123]
4. CC[C@@H](C)NC(=O)c1cc(N)cc(-c2cnc(NC(C)C)c(=O)n2CC(=O)NCc2ccc(C(=N)N)cc2OC)c1.O=C(O)C(F)(F)F.O=C(O)C(F)(F)F [Example 182]
5. CC(C)Nc1ncc(-c2cc(N)cc(NS(=O)(=O)c3ccc4ccccc4c3)c2)n(CC(=O)NCc2ccc(C(=N)N)cc2)c1=O [Example 90]
6. COC(=O)c1ccc(CNC(=O)c2cc(N)cc(-c3cnc(NC(C)C)c(=O)n3CC(=O)NCc3ccc(C(=N)N)cc3)c2)cc1.O=C(O)C(F)(F)F [Example 169]
7. CC(CC(=O)Nc1cc(N)cc(-c2cnc(NC(C)C)c(=O)n2CC(=O)NCc2ccc(C(=N)N)cc2)c1)CC(C)(C)C.O=C(O)C(F)(F)F.O=C(O)C(F)(F)F (stereo not drawn) [Example 139]
8. CC(C)Nc1ncc(-c2cc(N)cc(S(=O)(=O)C3CCCC3)c2)n(CC(=O)NCc2ccc(C(=N)N)cc2)c1=O.O=C(O)C(F)(F)F.O=C(O)C(F)(F)F [Example 235]

Output line:
< 4.52
< 4.52
< 4.52
< 4.52
< 4.52
< 4.52
< 4.52
< 4.52

Items follow; give pIC50 for each.
1. COc1ccc(CNC(=O)c2cc(N)cc(-c3cnc(NC(C)C)c(=O)n3CC(=O)NCc3ccc(C(=N)N)cc3)c2)cc1.O=C(O)C(F)(F)F.O=C(O)C(F)(F)F [Example 174]
2. CC[C@@H](C)NC(=O)c1cc(N)cc(-c2cnc(NC(C)C)c(=O)n2CC(=O)NCc2ccc(C(=N)N)cc2O)c1.O=C(O)C(F)(F)F [Example 240]
3. CCNc1ncc(-c2cc(N)cc(C(=O)N[C@@H](C)CC)c2)n(CC(=O)NCc2ccc(C(=N)N)cc2)c1=O.O=C(O)C(F)(F)F.O=C(O)C(F)(F)F [Example 194]
4. CC(C)Nc1ncc(-c2cc(N)cc(C(=O)NCC(=O)O)c2)n(CC(=O)NCc2ccc(C(=N)N)cc2)c1=O [Example 32]

Output line:
1. < 4.52
2. < 4.52
3. < 4.52
4. < 4.52
